experiment: Metabolic stability in human liver microsomes assessed as half-life; format: ADME, Microsome
endpointName: half-life (h)
Numbers only; they are read as h.

Cn1c(-c2ccccc2)cnc1NC(=O)c1ncc[nH]1    1.47

Param item = "Cn1c(-c2cccc(Cl)c2)cnc1NC(=O)c1ncc[nH]1" ; retrieve measured half-life.
3.82

Param item = "O=C(Nc1ncc(-c2ccccc2)o1)c1ccc(F)cc1" ; retrieve measured half-life.
0.317

Param item = "COc1ccc(-c2cnc(NC(=O)c3ccc(F)cc3)n2C)cc1" ; retrieve measured half-life.
0.983

* * *

assay: Lipophilicity, log P of the compound; format: physicochemical; conditions: octanol/water
endpointName: logP
Form: value (number only, do not type unit).

COc1ccc(-c2cnc(NC(=O)c3ccc(F)cc3)n2C)cc1    3.6

Alright, here's another compound for you.
Param item = "COc1ccc(-c2cnc(NC(=O)c3cc(-c4ccccn4)n[nH]3)n2C)cc1" ; retrieve measured logP.
3.2
